target: Tyrosine-protein phosphatase non-receptor type 1 (Homo sapiens); assay: Competitive inhibition of PTP1B (unknown origin) assessed as hydrolysis of para-nitrophenylphosphate by Lineweaver-Burk plot
endpoint: Ki (µM)
Record the value in µM, omitting the unit from your answer.

Consider the compound "Cn1ccc2c3n(c(=O)c(=O)cc1-3)c1ccccc21" and give its measured Ki.
7.07

====

Biological target: Tyrosine-protein phosphatase non-receptor type 1 (Homo sapiens)
Sequence (whole entry): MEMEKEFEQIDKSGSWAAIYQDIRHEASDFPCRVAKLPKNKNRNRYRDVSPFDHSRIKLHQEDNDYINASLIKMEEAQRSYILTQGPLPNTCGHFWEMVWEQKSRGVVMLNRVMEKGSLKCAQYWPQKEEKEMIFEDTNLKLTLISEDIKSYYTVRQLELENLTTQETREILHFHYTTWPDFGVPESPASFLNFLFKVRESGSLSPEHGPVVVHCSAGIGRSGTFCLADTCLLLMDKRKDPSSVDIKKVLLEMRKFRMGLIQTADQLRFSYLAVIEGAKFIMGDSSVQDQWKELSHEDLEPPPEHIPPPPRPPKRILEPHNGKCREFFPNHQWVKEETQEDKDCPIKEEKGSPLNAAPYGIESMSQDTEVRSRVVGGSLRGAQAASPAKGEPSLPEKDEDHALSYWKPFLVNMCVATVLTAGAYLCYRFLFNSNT
Assay: Inhibition of PTP1B (unknown origin) assessed as inhibition rate at 100 uM
// values below are reported inhibition
Record the value in %, omitting the unit from your answer.

Study these solved cases before continuing.
INSERT INTO measurements (compound, recorded_value) VALUES
  ('COCc1nccc2c1[nH]c1ccccc12', 27.4),
  ('OCc1nccc2c1[nH]c1ccccc12', 17);

Consider the compound "CCc1nc(C(=O)OC)cc2c1[nH]c1ccccc12" and give its measured inhibition.
21.2

Here is the next compound: "COCCc1ncc(OC)c2c1[nH]c1c(OC)cccc12"
28.6

Here is the next compound: O=C(O)C1Cc2c([nH]c3ccccc23)CN1 (configuration not stated)
26

Here is the next compound: "C=Cc1ncc(OC)c2c1[nH]c1c(OC)cccc12"
40.3

Here is the next compound: "O=c1ccc2c3c(cc[n+]2[O-])c2ccccc2n13"
50.9

====

The compounds below have reported IC50 for UniProt P18031.

INSERT INTO measurements (cpd_smiles, target_system, recorded_value) VALUES
  ('CC(=O)Oc1cc2nccc3c4ccccc4n(c1=O)c23', 'UniProt P18031', '28.9 µM'),
  ('Cc1c2n(C)ccc3c-2n(c(=O)c1=O)c1ccccc31', 'UniProt P18031', '24.7 µM');

Now for another entry.
Consider the compound "CCc1c2n(C)ccc3c-2n(c(=O)c1=O)c1ccccc31" and give its measured IC50.
27.8 µM

====

biological target: Tyrosine-protein phosphatase non-receptor type 1 (Homo sapiens) (UniProt P18031); assay: Inhibition of PTP1B (unknown origin) assessed as inhibition rate at 100 uM
Tag: True if measured inhibition is not below 20%, False if it is.

Look over these answered cases.
INSERT INTO results (compound, group_label) VALUES
  ('CCCCn1ccc2c3n(c(=O)c(=O)c(OC)c1-3)c1ccccc21', 'False'),
  ('O=C1NC(=O)c2[nH]c3ccccc3c2C1=O', 'True'),
  ('CCCCn1ccc2c3n(c(=O)c(=O)cc1-3)c1ccccc21', 'True'),
  ('CCc1ncc(OC)c2c1[nH]c1ccccc12', 'False'),
  ('O=c1ccc2nccc3c4ccccc4n1c23', 'False'),
  ('CCCC1NC(C(=O)O)Cc2c1[nH]c1ccccc21 (stereo unspecified)', 'True'),
  ('COc1c(OC)c2c3c(cc[n+]2[O-])c2ccccc2n3c1=O', 'False'),
  ('COc1c(OC(C)=O)c(=O)n2c3ccccc3c3cc(OC(C)=O)nc1c32', 'True'),
  ('COc1cnc(C(OC)OC(C)=O)c2[nH]c3ccccc3c12 (stereo unspecified)', 'False'),
  ('CCC1NC(C(=O)O)Cc2c1[nH]c1ccccc21 (stereo unspecified)', 'True');

Could you tell me if the measured inhibition of "COc1ccc2c3ccn(C)c4cc(=O)c(=O)n(c3-4)c2c1" reaches 20% or more?
True

Here is the next compound: "COc1c(OC)c2c3c(cc(=O)n2C)c2ccccc2n3c1=O"
True

Here is the next compound: "COC(=O)c1cc2c([nH]c3ccccc32)c(C)n1"
False
